Ref: the supplement of paper PMC7877785

assay: self-splicing fitness, log relative to wild type (ln ratio); higher = more splicing; Tetrahymena group I intron in knt gene, E. coli kanamycin selection, DiMSum; sequences stand for … in CUCUCU…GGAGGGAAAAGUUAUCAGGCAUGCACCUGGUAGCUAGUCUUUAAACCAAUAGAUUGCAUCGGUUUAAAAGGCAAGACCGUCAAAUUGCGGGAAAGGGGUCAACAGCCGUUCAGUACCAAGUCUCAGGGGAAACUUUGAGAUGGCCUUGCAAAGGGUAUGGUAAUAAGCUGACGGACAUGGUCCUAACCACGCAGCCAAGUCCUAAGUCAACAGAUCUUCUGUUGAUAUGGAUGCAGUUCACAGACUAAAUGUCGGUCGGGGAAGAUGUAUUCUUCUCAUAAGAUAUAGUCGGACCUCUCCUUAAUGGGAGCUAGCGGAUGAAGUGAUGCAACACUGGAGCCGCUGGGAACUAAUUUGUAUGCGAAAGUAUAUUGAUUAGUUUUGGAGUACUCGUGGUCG; conditions: 37 °C;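 further: selection with 25 µg/mL kanamycin versus none on LB agar overnight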
Note to self: values exactly at -1 are yes. So self-splicing fitness (ln) at or above -1 is yes, below is no.

Sequence Chain	Class Assignment
GACAAGCAAUAUUACGACUA	yes
GCAAAGCAAUAUUACGUUGU	no
UGCUAGCAAUAUUACGGCGG	yes
AUCGAGCAAUAUUACGGUGG	no
AAUUAGCAAUAUUACGGCGU	yes
CAGUAGCAAUAUUACGCGUC	no
UCGUAGCAAUAUUACGGAUU	no
UGCAAGCAAUAUUACGCCGU	no
UUAAAGCAAUAUUACGGACA	yes
GAGAAGCAAUAUUACGAGAU	no
UAUUAGCAAUAUUACGAGGA	no
CCUUAGCAAUAUUACGGAAG	no
AGUAAGCAAUAUUACGGACC	yes
UCGUAGCAAUAUUACGACGG	yes
GGGGAGCAAUAUUACGUGCU	no
CUUCAGCAAUAUUACGUCAC	no
